This collection of values is drawn from patent US20250228823A1.

Listing: pEC50 of selected compounds
- TARGET: bovine a1A receptor (Bos taurus)
- Sequence (P18130 1-466): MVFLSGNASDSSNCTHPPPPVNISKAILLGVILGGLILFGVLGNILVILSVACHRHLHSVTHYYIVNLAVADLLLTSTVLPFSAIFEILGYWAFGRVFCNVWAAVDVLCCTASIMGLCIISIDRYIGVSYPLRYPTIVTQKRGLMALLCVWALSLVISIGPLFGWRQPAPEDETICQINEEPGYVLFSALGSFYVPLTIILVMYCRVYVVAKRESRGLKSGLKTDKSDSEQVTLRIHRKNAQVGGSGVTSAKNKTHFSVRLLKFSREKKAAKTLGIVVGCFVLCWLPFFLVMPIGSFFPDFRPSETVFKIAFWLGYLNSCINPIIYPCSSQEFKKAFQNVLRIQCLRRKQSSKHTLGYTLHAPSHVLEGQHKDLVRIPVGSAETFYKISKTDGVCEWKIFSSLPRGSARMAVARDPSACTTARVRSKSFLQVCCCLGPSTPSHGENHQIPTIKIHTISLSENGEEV
- TEST METHOD NOTES: cell-based
pEC50: −log10 of the molar value.

                          compound                            target  observed_measurement
0  Cc1c(CO)cccc1[C@H](C)c1c[nH]cn1  bovine a1A receptor (Bos taurus)          5.62 to 6.47

Now let's try a different one.
## Input Quickly give me recorded pEC50 for Brc1c(NC2=NCCN2)ccc2nccnc12 [Brimonidine, reference compound]
## Output 5.62 to 6.22
